Assay protocol: yeast display, Sf9 membrane polyspecificity reagent, FACS + sequencing; frameworks hold sequencing errors
Metric: polyreactivity (PSR sort gate)

INSERT INTO assay_data (sequence_content, value_reported) VALUES
  ('QVQLVESGGRLVQAGGSLRLSCAASGFIISFNAMGWYRQATGKERELVATISGGGGSTYYADSVKGRFTISRDKAKNTVYLQMKSLKPEDTAVYYCAKSYRYRGDYWGQGTQVTVSS', 'high polyreactivity'),
  ('QVQLVESGGGLVQAGGSLRLSCAASGSTFYSYVMGWYRQAPGKERELVAVITSGGSTTYADSVKGRFTISRDNAKNTVYLQMNSLKPEDTAVYYCAKRNYLSYRYDYWGQGTQVTVSS', 'low polyreactivity'),
  ('QVQLVESGGGLVQAGGSLRLSCAASGSIFTYYVMGWYRQAPGKERELVAAITISGGSTYYADSVKGRFTISRDNAKNTVYLQMNRLNPEDTAVYYCAAEEVYYEADGFLYSYDYWGKGTQVTVSS', 'high polyreactivity'),
  ('QVQLVESGGGLVQAGGSLRLSCAASGRTFRPYAMGWYRQAPGKERELVAAITGGTRTYYADSVKGRFTISRDNAKNTVYLQMNSLKPEDTAVYYCAKGDFFSKHDYLGQGTQVTVSS', 'low polyreactivity'),
  ('QVQLVESGGGLVQAGGSLRLSCAASGFISTPYAMGWYRQAPGKERELVAAIDISGGRTYYADSVKGRFTISRDNAKNTVYLQMNSLKPEDTAVYYCAAQLVSSYYAWYRTYYYWGQGTQVTVSS', 'high polyreactivity');

Record polyreactivity (PSR sort gate) for all entries; do not skip any.
1. QVQLVESGGGLVQAGGSLRLSCDASGRIFSLYAMGWYRQAPGKERELVAAISRRSGNTNYADSVKGRFTISRDNAKNNVFLQLNSLKPEDTAVYFCAARPGAISSTSPYDYWGEGTQVTVSS
2. QVQLVESGGGLVQAGGSLRLSCAASGSILGGNAMGWYRQAPGKERELVAAITFSGGGTYYADSVKGRFTISRDNGKNTVYLQMNSLKPEDTALYNCAADKDGYTYEFDYWGQGTQVTVSS
3. QVQLVESGGGLVQAGGSLRLSCAASGSIFIYYAMGWYRQAPGKERELVAAISYSDGDTYYADSVKGRFTISRDNAKNTVYLQMNSLKPEDTAVYYCAAEVPQYYDVGWEDYCGQGTQVTVSS
4. QVQLVESGGGLVQAGGSLRLSCAASGRISGVNAMGWYRQAPGKERELVATISGSGGRTYYADSVKGRFTISRDNAKNTVYLQMNSLKPEDTAVYYCNTLVQRGGYFSLRFDYWGQGTQVTVSS

high polyreactivity
low polyreactivity
high polyreactivity
low polyreactivity

Record polyreactivity (PSR sort gate) for all entries; do not skip any.
1. QVQLVESGGGLVQAGGSLRLICAASGSTFARNAMGWYRQAPGKERELVAAITTRGSSTYYADSVKGRFTISRDNAKNTVYLQMNSLKPEDTAVYYCAADSRRSWYWGGYRQTGMGYWGQGTQLTVSS
2. QVQLVESGGGLVQAGGSLRLSCAASGSIFDGYAMGWYRQAPWKERELVAAISYTGGRKYYADSVKGRFTISRDNAKNTVYLQMNSLKPEDTAVYYCAARYHLGRSPRYYRGQGTQVTVSS

["high polyreactivity", "high polyreactivity"]
